- SYSTEM_NAME: Potassium voltage-gated channel subfamily KQT member 2 (Rattus norvegicus)
- ASSAY_METHOD_TEXT: KCNQ2 thallium flux enhancement – KCNQ2-CHO-K1 cells, selectivity assay for KCNQ1 potentiator project (AID 493009);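 also: assay conditions were tuned for KCNQ1 rather than KCNQ2 modulators; signal is max minus min fluorescence divided by baseline after thallium stimulus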
- RECORDED_CONDITIONS: FluxOR thallium flux fluorescence, at 10 µM; stronger effect = higher value, scaled: buffer 0, activator control 100
Active and inactive are the calls of the source.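 The calls were made as follows: active = mean duplicate potentiation above the buffer control mean plus 5 SD of buffer wells; inactive = the rest.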
EXPERIMENTAL_ENDPOINT: potentiation

Cc1nn(-c2cc(C(F)(F)F)ccc2Cl)c2nc(C(Cl)(Cl)Cl)[nH]c(=O)c12
218% (active)
Cc1cc(C)cc(N/C(N)=N/c2nc(C)cc(C)n2)c1
inactive
Fc1cc(F)c2nc(Nc3nc4c(F)cccc4s3)sc2c1
422% (active)
CN(CCCNC(=O)CCCOc1cc(=O)n(C)c2ccccc12)Cc1ccccc1
inactive
CCOC(=O)c1sc(=S)n2c1[nH]c(=O)c1ccc(C(=O)OC)cc12
351% (active)

Now for the molecule whose potentiation we want.
In: State its potentiation on Potassium voltage-gated channel subfamily KQT member 2 (Rattus norvegicus): `Cc1ccc(OCC(=O)NNC(=S)NC(=O)c2ccc(Br)o2)c(C)c1`
Out: 328% (active)

---

- SYSTEM_NAME: Short transient receptor potential channel 4 (Mus musculus) (UniProt Q9QUQ5)
- Sequence (Q9QUQ5 whole entry, looked up): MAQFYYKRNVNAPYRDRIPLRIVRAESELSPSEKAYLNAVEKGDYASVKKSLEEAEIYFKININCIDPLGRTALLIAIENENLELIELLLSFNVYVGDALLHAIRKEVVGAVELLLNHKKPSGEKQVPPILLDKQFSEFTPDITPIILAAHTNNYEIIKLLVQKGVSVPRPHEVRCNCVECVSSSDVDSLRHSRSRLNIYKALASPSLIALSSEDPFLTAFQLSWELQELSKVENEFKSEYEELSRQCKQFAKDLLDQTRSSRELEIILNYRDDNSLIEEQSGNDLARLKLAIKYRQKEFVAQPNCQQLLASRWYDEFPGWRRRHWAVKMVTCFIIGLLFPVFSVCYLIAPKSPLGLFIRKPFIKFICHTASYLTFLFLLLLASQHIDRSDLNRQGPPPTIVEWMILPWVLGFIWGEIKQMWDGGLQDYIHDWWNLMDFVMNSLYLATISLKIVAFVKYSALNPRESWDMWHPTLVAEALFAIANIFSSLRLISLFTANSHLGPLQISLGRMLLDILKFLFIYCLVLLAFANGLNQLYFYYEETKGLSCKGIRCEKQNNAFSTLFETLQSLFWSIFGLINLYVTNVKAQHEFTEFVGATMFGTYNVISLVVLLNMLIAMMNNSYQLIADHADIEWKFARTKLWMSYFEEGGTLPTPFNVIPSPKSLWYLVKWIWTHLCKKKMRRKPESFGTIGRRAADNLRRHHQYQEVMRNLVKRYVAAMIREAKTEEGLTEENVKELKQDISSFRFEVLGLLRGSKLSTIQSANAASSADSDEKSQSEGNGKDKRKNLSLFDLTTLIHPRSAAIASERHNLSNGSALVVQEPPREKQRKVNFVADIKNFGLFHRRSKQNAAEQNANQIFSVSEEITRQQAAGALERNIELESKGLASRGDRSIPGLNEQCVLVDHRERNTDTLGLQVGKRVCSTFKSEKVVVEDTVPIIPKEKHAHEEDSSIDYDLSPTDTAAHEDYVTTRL
- ASSAY_METHOD_TEXT: blockers of DAMGO-evoked TRPC4 calcium flux – cell-based, Fluo4, HEK293 TRPC4beta/mu-opioid, confirmation (AID 2636)
- RECORDED_CONDITIONS: at 10 µM
Active and inactive are the calls of the source.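 The calls were made as follows: active = calcium signal cut by more than 3 SD below the full-agonist control yet still positive, in both repeats and the earlier primary screen; inactive = the rest.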
Respond using exactly one of the listed classes: active, inactive

Please review the following examples before continuing.
OCCNc1nc2ccccc2n1CCN1CCCCC1
active
O=C(NCC(c1ccco1)N1CCc2ccccc2C1)c1ccc(F)cc1 (stereo not given)
inactive
COC(=O)C1=C(CCc2ccccc2)NC(=O)NC1c1ccc(Cl)cc1 (stereo not given)
inactive
Cc1ccc(NC(=O)C2CCC(CNC(=O)[C@@H]3Cc4ccccc4CN3)CC2)cc1 (stereo not given in full)
inactive
CCc1cc(=O)oc2c(CNCc3ccccc3F)c(O)c(Cl)cc12
inactive
CCCCN1CCc2c1nc1ccc(Br)cc1c2N
inactive
COC(=O)C(CC(=O)Nc1cc(C)ccc1C)Nc1ccccc1OC (stereo not given)
inactive
O=C1/C(=C\c2cc([N+](=O)[O-])ccc2O)SC(=S)N1Cc1ccc(Cl)cc1
inactive

In: Check the results log: what was the call for `Fc1ccc(Nc2ncnc3sc4c(c23)CCC4)cc1` ?
Out: inactive

In: What was the test verdict on `CN(C)CCCCOc1cccc(Br)c1` ?
Out: inactive

In: Entry `CCCc1ccc(OCc2ccc(C(=O)N3CCCC3)o2)cc1` : call = ?
Out: inactive

---

- SYSTEM_NAME: Short transient receptor potential channel 4 (Mus musculus) (UniProt Q9QUQ5)
- ASSAY_METHOD_TEXT: blockers of DAMGO-evoked TRPC4 calcium flux – cell-based, second round, Fluo4, HEK293 TRPC4beta/mu-opioid, 1 µM, confirmation (AID 2637);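 also: percent of integrated ratio relative to wells lacking test compound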
- RECORDED_CONDITIONS: at 1 µM
The source made the active and inactive calls.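 How the source made its calls: active means calcium signal ratio cut to more than 3 SD under the fully stimulated control mean yet still positive, in both repeats and the primary screen; inactive means the rest.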
Tick one outcome: y (active), n (inactive)

In: I would be grateful if you could indicate the recorded call for `Cc1cccn2c(=O)c(/C=N/O)c(N3CCCC3)nc12` .
Out: y

Hey, just so you know, these numbers are from PubChem BioAssay.
